Test: qHTS assay to identify small molecule antagonists of the estrogen receptor alpha (ER-alpha) signaling pathway - cell viability counter screen (AID 743074);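 also: HEK293 cells carrying ER-alpha-UAS-bla reporter stimulated with 17beta-estradiol; nearly all actives have a fitted effect of over 45% in size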; also: potency is read from the fitted curve at half-maximal effect
Conditions: ERalpha-bla HEK293 viability, CellTiter-Glo luminescence, 18 h; series mostly up to 69.4 µM
Records with an inconclusive call do not appear. The source made the active and inactive calls. Calls follow the shape of the full dose curve.

>  <COMPOUND>
O=C(O)c1ccc(NC2OC[C@@H](O)[C@H](O)[C@H]2O)cc1 (some centres undefined)

>  <Potency>
inactive

$$$$
>  <COMPOUND>
NS(=O)(=O)c1cc(Cl)c(Cl)c(S(N)(=O)=O)c1

>  <Potency>
inactive

$$$$
>  <COMPOUND>
O=C[C@H](O)[C@@H](O)[C@@H](O)[C@H](O)CO

>  <Potency>
inactive

$$$$
>  <COMPOUND>
NCCCC[C@H](NC(=O)[C@@H]1CCCN1C(=O)[C@@H]1CSSC[C@H](N)C(=O)N[C@@H](Cc2ccc(O)cc2)C(=O)N[C@@H](Cc2ccccc2)C(=O)N[C@@H](CCC(N)=O)C(=O)N[C@@H](CC(N)=O)C(=O)N1)C(=O)NCC(N)=O

>  <Potency>
inactive

$$$$
>  <COMPOUND>
Oc1ccc(Cl)cc1C1CCCC1

>  <Potency>
inactive

$$$$
>  <COMPOUND>
C=C1[C@H](CO)[C@@H](O)C[C@@H]1n1cnc2c(=O)[nH]c(N)nc21

>  <Potency>
inactive

$$$$
>  <COMPOUND>
CN(C)CCC(O)(c1ccccc1)c1ccccc1Cl (centres undefined)

>  <Potency>
inactive

$$$$
>  <COMPOUND>
Cc1cc(F)ccc1-c1cc(N2CC[C@@H](O)[C@H]2CO)ncc1N(C)C(=O)C(C)(C)c1cc(C(F)(F)F)cc(C(F)(F)F)c1

>  <Potency>
43 µM (active)

$$$$
>  <COMPOUND>
NC(=O)[C@@H]1C[C@]2(NC(=O)NC2=O)c2cc(F)ccc2O1

>  <Potency>
inactive

$$$$

====

Assay: qHTS assay to identify small molecule antagonists of the glucocorticoid receptor (GR) signaling pathway - cell viability counter screen (AID 720693); also: nearly all actives have a fitted effect of over 55% in size
Settings: GR-bla HeLa viability, CellTiter-Glo luminescence, 18 h, with 5 nM dexamethasone present; series mostly up to 58.5 µM
Inconclusive results are not listed. The source made the active and inactive calls. Calls follow the shape of the dose curve; as a rule, active = well fitted cell-killing curve with a large enough effect in the repeat runs; inconclusive = weak or mixed curves, or effect the other way; inactive = no such curve, though single readings can be large or run the other way.
Classes used: active, inactive

>  <MOLECULE>
N[C@@H](Cc1cnc[nH]1)C(=O)O

>  <ASSIGNED_CATEGORY>
inactive

$$$$
>  <MOLECULE>
COC(=O)[C@H]1[C@H]2C[C@H]3c4[nH]c5ccccc5c4CCN3C[C@H]2CC[C@@H]1O

>  <ASSIGNED_CATEGORY>
inactive

$$$$
>  <MOLECULE>
N#Cc1nc(Cl)c(Cl)c(Cl)c1Cl

>  <ASSIGNED_CATEGORY>
active

$$$$
>  <MOLECULE>
CCCCCCCCCCCCCC(=O)OCC(COP(=O)([O-])OCC[N+](C)(C)C)OC(=O)CCCCCCCCCCCCC (centres undefined)

>  <ASSIGNED_CATEGORY>
inactive

$$$$
>  <MOLECULE>
COc1ccc(/C=C/C(=O)O)cc1

>  <ASSIGNED_CATEGORY>
inactive

$$$$
>  <MOLECULE>
CC1(C)S[C@@H]2[C@H](NC(=O)[C@H](N)c3ccc(O)cc3)C(=O)N2[C@H]1C(=O)O

>  <ASSIGNED_CATEGORY>
inactive

$$$$
>  <MOLECULE>
C=CC[N@@+]12CC[C@@]34c5ccccc5N5/C=C6/[C@H]7C[C@H]8[C@@]9(CC[N@@+]8(CC=C)C/C7=C/CO)c7ccccc7N(/C=C(/[C@@H](C[C@@H]31)/C(=C\CO)C2)[C@H]54)[C@@H]69

>  <ASSIGNED_CATEGORY>
inactive

$$$$
>  <MOLECULE>
CCC1OC(=O)C[C@@H](O)[C@H](C)[C@@H](O[C@@H]2O[C@H](C)C[C@H](N(C)C)[C@H]2O)[C@@H](CC=O)C[C@@H](C)C(=O)/C=C/[C@]2(C)OC2C1C (some centres undefined)

>  <ASSIGNED_CATEGORY>
inactive

$$$$
>  <MOLECULE>
C/C(=C(/CCO)SSCC1CCCO1)N(C=O)Cc1cnc(C)nc1N (centres undefined)

>  <ASSIGNED_CATEGORY>
inactive

$$$$

====

Assay: qHTS assay to identify small molecule antagonists of the estrogen receptor alpha (ER-alpha) signaling pathway - cell viability counter screen (AID 743074);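 also: HEK293 cells carrying ER-alpha-UAS-bla reporter stimulated with 17beta-estradiol; nearly all actives have a fitted effect of over 45% in size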
Conditions: ERalpha-bla HEK293 viability, CellTiter-Glo luminescence, 18 h; series mostly up to 69.4 µM
Results filed as inconclusive are left out. Active and inactive are the calls of the source. Calls follow the shape of the full dose curve. Positions of bridges follow the written chain, without caps; N, C: chain ends. Non-standard residues stand in square brackets, D forms with d. Residues, ends and D or L forms follow the SMILES beside them. *: point of attachment. Dab(CH2SO3H) = N[C@@H](CCNCS(=O)(=O)O)C(=O)O; X3 = CC[C@@H](C)CCCCC(=O)*; Orn = NCCC[C@H](N)C(=O)O; Dab = NCC[C@H](N)C(=O)O
Classes used: yes (1) = active, no (0) = inactive

>  <MOLECULE>
Clc1nc(C(Cl)(Cl)Cl)c(Cl)c(Cl)c1Cl

>  <ASSIGNED_CATEGORY>
no (0)

$$$$
>  <MOLECULE>
NCc1cccc(C2CCN(C(=O)c3ccc(C#Cc4ccccc4F)o3)CC2)c1

>  <ASSIGNED_CATEGORY>
yes (1)

$$$$
>  <MOLECULE>
CC(C)(Oc1ccc(C2CCCc3ccccc32)cc1)C(=O)O (stereo not drawn)

>  <ASSIGNED_CATEGORY>
no (0)

$$$$
>  <MOLECULE>
c1ccc2c(c1)OCC(CN1CCCCC1)O2 (stereo not drawn)

>  <ASSIGNED_CATEGORY>
no (0)

$$$$
>  <MOLECULE>
CCC(=O)OC(OP(=O)(CCCCc1ccccc1)CC(=O)N1C[C@H](C2CCCCC2)C[C@H]1C(=O)O)C(C)C (stereo partly drawn)

>  <ASSIGNED_CATEGORY>
no (0)

$$$$
>  <MOLECULE>
CO/N=C(\C(=O)N[C@@H]1C(=O)N2C(C(=O)O)=C(CSc3cnns3)CS[C@H]12)c1csc(N)n1

>  <ASSIGNED_CATEGORY>
no (0)

$$$$
>  <MOLECULE>
C=CCc1cc(S(=O)(=O)c2ccc(O)c(CC=C)c2)ccc1O

>  <ASSIGNED_CATEGORY>
no (0)

$$$$
>  <MOLECULE>
NCC(O)CC(=O)O (stereo not drawn)

>  <ASSIGNED_CATEGORY>
no (0)

$$$$
>  <MOLECULE>
NC(N)=NCC1COC2(CCCCC2)O1 (stereo not drawn)

>  <ASSIGNED_CATEGORY>
no (0)

$$$$
>  <MOLECULE>
CCOc1ccc(S(=O)(=O)O)c2cccnc12

>  <ASSIGNED_CATEGORY>
no (0)

$$$$
>  <MOLECULE>
COC(=O)C[C@](O)(CCCC(C)(C)O)C(=O)O[C@@H]1C(OC)=CC23CCCN2CCc2cc4c(cc2[C@H]13)OCO4 (stereo partly drawn)

>  <ASSIGNED_CATEGORY>
no (0)

$$$$
>  <MOLECULE>
FC(F)(F)COCC(F)(F)F

>  <ASSIGNED_CATEGORY>
no (0)

$$$$
>  <MOLECULE>
O=C(O)c1cc(O)c2c(c1)[C@H]([C@H]1c3cc(C(=O)O)cc(O)c3C(=O)c3c(O[C@@H]4O[C@H](CO)[C@@H](O)[C@H](O)[C@H]4O)cccc31)c1cccc(O[C@@H]3O[C@H](CO)[C@@H](O)[C@H](O)[C@H]3O)c1C2=O

>  <ASSIGNED_CATEGORY>
no (0)

$$$$
>  <MOLECULE>
CC(C)C[C@@H]1NC(=O)[C@H](CCCN)NC(=O)[C@H](C(C)C)NC(=O)[C@@H]2CCCN2C(=O)[C@@H](Cc2ccccc2)NC(=O)[C@H](CC(C)C)NC(=O)[C@H](CCCN)NC(=O)[C@H](C(C)C)NC(=O)[C@@H]2CCCN2C(=O)[C@@H](Cc2ccccc2)NC1=O (cyclo(V[Orn]L[dF]PV[Orn]L[dF]P))

>  <ASSIGNED_CATEGORY>
yes (1)

$$$$
>  <MOLECULE>
CC(C)NCC1CCc2cc(CO)c([N+](=O)[O-])cc2N1 (stereo not drawn)

>  <ASSIGNED_CATEGORY>
no (0)

$$$$
>  <MOLECULE>
CN1[C@@H](CC(=O)c2ccccc2)CCC[C@H]1C[C@H](O)c1ccccc1

>  <ASSIGNED_CATEGORY>
no (0)

$$$$
>  <MOLECULE>
CC[C@@H](C)CCCCC(=O)N[C@@H](CCNCS(=O)(=O)O)C(=O)N[C@H](C(=O)N[C@@H](CCNCS(=O)(=O)O)C(=O)N[C@H]1CCNC(=O)[C@H]([C@@H](C)O)NC(=O)[C@H](CCNCS(=O)(=O)O)NC(=O)[C@H](CCNCS(=O)(=O)O)NC(=O)[C@H](CC(C)C)NC(=O)[C@@H](CC(C)C)NC(=O)[C@H](CCNCS(=O)(=O)O)NC1=O)[C@@H](C)O (X3-[Dab(CH2SO3H)]T[Dab(CH2SO3H)][Dab][Dab(CH2SO3H)][dL]L[Dab(CH2SO3H)][Dab(CH2SO3H)]T; lactam 4-C)

>  <ASSIGNED_CATEGORY>
no (0)

$$$$
>  <MOLECULE>
N[C@@H](Cc1ccc(O)c(O)c1)C(=O)O

>  <ASSIGNED_CATEGORY>
no (0)

$$$$
>  <MOLECULE>
NC(=O)C1c2ccccc2CCc2ccccc21

>  <ASSIGNED_CATEGORY>
no (0)

$$$$
>  <MOLECULE>
CCCOC(=O)c1ccccc1O

>  <ASSIGNED_CATEGORY>
no (0)

$$$$
>  <MOLECULE>
CCN(CC)C(=O)[C@]1(c2ccccc2)C[C@@H]1CN

>  <ASSIGNED_CATEGORY>
no (0)

$$$$
>  <MOLECULE>
CCCCCCCCCC[N+](C)(CCCCCCCCCC)CCC[Si](OC)(OC)OC

>  <ASSIGNED_CATEGORY>
yes (1)

$$$$
>  <MOLECULE>
N=C(N)n1cccn1

>  <ASSIGNED_CATEGORY>
no (0)

$$$$
>  <MOLECULE>
C=CC1=C(C(=O)O)N2C(=O)[C@@H](NC(=O)/C(=N\O)c3csc(N)n3)[C@H]2SC1 (stereo in doubt)

>  <ASSIGNED_CATEGORY>
no (0)

$$$$
>  <MOLECULE>
CCCCCCCCCCCCCC(=O)OCC(COP(=O)([O-])OCC[N+](C)(C)C)OC(=O)CCCCCCCCCCCCC (stereo not drawn)

>  <ASSIGNED_CATEGORY>
no (0)

$$$$
>  <MOLECULE>
CCc1ncnc2cc(OC)c(OC)cc12

>  <ASSIGNED_CATEGORY>
no (0)

$$$$
>  <MOLECULE>
O=C(CCCN1CCN2CCCC2C1)c1ccc(F)cc1 (stereo not drawn)

>  <ASSIGNED_CATEGORY>
no (0)

$$$$
>  <MOLECULE>
C/C=C/C1=C(C(=O)O)N2C(=O)[C@@H](NC(=O)[C@H](N)c3ccc(O)cc3)[C@H]2SC1

>  <ASSIGNED_CATEGORY>
no (0)

$$$$
>  <MOLECULE>
C[C@H](NCCc1ccc(O)cc1)[C@H](O)c1ccc(O)cc1

>  <ASSIGNED_CATEGORY>
no (0)

$$$$
>  <MOLECULE>
CO[C@H]1C[C@@H]2CC[C@@H](C)[C@@](O)(O2)C(=O)C(=O)N2CCCC[C@H]2C(=O)O[C@H]([C@H](C)C[C@@H]2CC[C@@H](O)[C@H](OC)C2)CC(=O)[C@H](C)C=C(C)[C@@H](O)[C@@H](OC)C(=O)[C@H](C)C[C@H](C)/C=C/C=CC=C1C

>  <ASSIGNED_CATEGORY>
yes (1)

$$$$
>  <MOLECULE>
CN1C(C(=O)Nc2ccccn2)C(=O)c2sc(Cl)cc2S1(=O)=O (stereo not drawn)

>  <ASSIGNED_CATEGORY>
no (0)

$$$$
>  <MOLECULE>
O=C(O)COc1ccc(C(=O)c2cccs2)c(Cl)c1Cl

>  <ASSIGNED_CATEGORY>
no (0)

$$$$
>  <MOLECULE>
CCC1OC(=O)C[C@@H](O)[C@H](C)[C@@H](O[C@@H]2O[C@H](C)C[C@H](N(C)C)[C@H]2O)[C@@H](CC=O)C[C@@H](C)C(=O)/C=C/[C@]2(C)OC2C1C (stereo partly drawn)

>  <ASSIGNED_CATEGORY>
no (0)

$$$$
